Molecular target: human APJ receptor (Homo sapiens (Human))
Sequence (P35414 whole entry): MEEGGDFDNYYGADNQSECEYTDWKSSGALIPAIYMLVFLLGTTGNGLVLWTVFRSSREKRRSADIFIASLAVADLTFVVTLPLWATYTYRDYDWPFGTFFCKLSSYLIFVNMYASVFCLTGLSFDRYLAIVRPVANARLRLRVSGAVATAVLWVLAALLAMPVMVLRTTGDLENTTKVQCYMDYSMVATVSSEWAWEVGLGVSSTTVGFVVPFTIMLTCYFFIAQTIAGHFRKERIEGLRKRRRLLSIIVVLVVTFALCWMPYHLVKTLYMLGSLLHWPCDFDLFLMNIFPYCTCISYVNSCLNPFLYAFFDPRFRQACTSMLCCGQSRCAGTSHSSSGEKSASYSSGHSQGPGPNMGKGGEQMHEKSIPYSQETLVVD
Assay: [35S]GTPγS binding assay on membranes from CHO cells stably expressing human APJ receptor
Assay type: biochemical
Conditions: [35S]GTPγS SPA, read-out: Activity hAPJ SPA EC50 IP
Each record here notes measured EC50.
observation_type: EC50 (nM)

compound	numeric_value
COc1cccc(OC)c1-n1c(NS(=O)(=O)[C@@H](C)[C@@H](OC(C)C)c2cnc(C)cn2)nnc1C1CCC1	31
COc1cccc(OC)c1-n1c(NS(=O)(=O)[C@@H](C)[C@H](OC)c2ncc(Cl)cn2)nnc1C1CCCC1	1.2
COc1ncnc(OC)c1-n1c(NS(=O)(=O)[C@@H](C)[C@H](OC)c2ncc(Cl)cn2)nnc1C1CC2(CC2)C1	1.4
COc1cccc(OC)c1-n1c(NS(=O)(=O)[C@@H](C)[C@H](OC)c2ncc(Cl)cn2)nnc1[C@H]1CC(=O)C1(C)C (single isomer, unassigned) [Example 197.0]	870
COc1ncnc(OC)c1-n1c(NS(=O)(=O)[C@@H](C)[C@H](OC)c2ncc(Cl)cn2)nnc1C1CC2(CCC2)C1	1.1
COc1ncnc(OC)c1-n1c(NS(=O)(=O)[C@@H](C)[C@H](C)c2ncc(C)cn2)nnc1C1CCC1	21

Values compiled from patent US11020395B2.
